# testedTarget: T1, Sla1-2, P32790
# T1 sequence (P32790 60-140, looked up): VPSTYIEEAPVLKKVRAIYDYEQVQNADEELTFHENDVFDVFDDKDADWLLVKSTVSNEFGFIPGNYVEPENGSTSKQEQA
# testMethodNotes: SPOT array
# measurementParameters: median of control spots 712
Let's look at some binders and their measured SPOT intensity.
quantityKind: SPOT intensity

| binder | quantityKind | endpointValue |
| --- | --- | --- |
| TTAPALPSLPPPPLL | SPOT intensity | 0 |
| QQEQNTPPLPPKPKS | SPOT intensity | 1 |
| RLSFFFPLDPAYIRN | SPOT intensity | 0 |
| AATTSTPPLPRRRAT | SPOT intensity | 0 |
| TSIEIPKRSPLRFTS | SPOT intensity | 792 |
| RRASLFPRDPKRLRP | SPOT intensity | 7 |
| FYNRTAFQLPGDARV | SPOT intensity | 0 |
| KKEKKPPKIPKKVYT | SPOT intensity | 0 |
| NNNKMRPHLPPLSSG | SPOT intensity | 0 |
| NHSRSLFSLPGNQQS | SPOT intensity | 1 |
| VQQDSLPKLPFRSWG | SPOT intensity | 0 |
| SLSRRRFSLPSMPNV | SPOT intensity | 2 |
| LKPPIGRPPKFPKSP | SPOT intensity | 0 |
| TKHKAPPPPPPTAET | SPOT intensity | 1 |
| NFKRLLPRDPSEKSS | SPOT intensity | 0 |
